Biological target: L3 (DV1-GV8), soluble leucine zipper γδ TCR heterodimer of a delta variable 1 chain and a gamma variable 8 … (human)
Sequence (chain, as listed by the source mutant, chain 1 of 2): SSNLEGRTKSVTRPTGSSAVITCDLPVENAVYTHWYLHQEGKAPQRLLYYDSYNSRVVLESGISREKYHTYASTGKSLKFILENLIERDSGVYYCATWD
Sequence (chain, as listed by the source mutant, chain 2 of 2): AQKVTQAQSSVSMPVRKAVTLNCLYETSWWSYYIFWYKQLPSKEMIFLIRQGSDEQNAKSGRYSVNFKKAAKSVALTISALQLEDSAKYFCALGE
Assay: DELFIA ELISA, coated antigen;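 also: binding of antibody supernatants or protein-A purified antibodies to plate-coated antigen (3 µg/ml recombinant TCR or BSA), 1 h incubation at room temperature, DELFIA readout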
Endpoint Name: DELFIA ELISA response (FU)
Provide only the numeric value, understood in FU.

{"Binder": "G4_14 (antibody, human IgG1, V domains shown, also called clone G4_14) VH: EVQLVQSGAEVKKPGESLRISCKGSGYSFTSYWISWVRQMPGKGLEWMGRIDPSDSYTNYSPSFPGHVTISADKSISTAYLQWSSLKASDTAMYYCAADTAHGMDVWGRGTLVTVSS VL: SNFMLTQPHSVSESPGKTVTISCTRSRGSIAGNYVHWYQQRPGRAPTTVIYRDKERPSGVPDRISGSIDSSSNSASLTISGLKTEDEADYYCQSYDSSTHVVFGGGTKLTVLG", "DELFIA ELISA response (FU)": 229}
{"Binder": "G4_10 (antibody, human IgG1, V domains shown, also called clone G4_10) VH: QVQLVESGGGVVQPGRPLRLSCAASGFTFSSYAMHWVRQAPGKGLEWVSAISGSGGSTYYADSVKGRFTISRDNSKNTLYLQMNSLRAEDTAVYYCAKDGAVDFWRNGMDVWGRGTLVTVSS VL: DIVMTQPPLSLPVTLGHPASISCKSSQSLEYSDGNTYLNWFQQRPGQSPRRLIYKVSNRDSGAPDRFSGSGSGTDFTLEISRVEAEDVGVYYCMQGTLWPPTFGQGTKVDIKR", "DELFIA ELISA response (FU)": 187}
{"Binder": "G4_28 (antibody, human IgG1, V domains shown, also called clone G4_28) VH: QVQLVESGGGLVQPGGSLRLSCAASGFTFDDYAMHWVRQAPGKGLEWVSGISAGGGSTNYAGSVKGRFTVSRDTSKNTLYLQMNSLRAEDTAVYYCVKSYVDTAMRYYYYYMDVWGQGTMVTVSS VL: SSYELTQDPAVSVALGQTVTITCQGDSLRNYYASWYRQKPGQTPVLVVYGKNNRPSGIPDRFSVSASGNTASLTITGAQAEDEGDYYCNSRDSSGVVFGGGTKVTVLG", "DELFIA ELISA response (FU)": 984}
{"Binder": "G4_26 (antibody, human IgG1, V domains shown, also called clone G4_26) VH: QVQLVQSGAEVKKPGSSVKVSCKASGGTFSSYAISWVRQAPGQGLEWMGGIIPIFGTANYAQKFQGRVTITADESTSTAYMELSSLRSEDTAVYYCASSRGSGWFPLGYWGQGTLVTVSS VL: SQSGLTQPASVSGSPGQSITISCTGTSSDVGSYNLVSWYQQHPGKAPKLMIYEVSKRPSGVSNRFSGSKSGNTASLTISGLQAEDEADYYCSSFGSGSIFGTGTKLTVLG", "DELFIA ELISA response (FU)": 870}

Next up:
Query: I would be grateful if you could share the reported DELFIA ELISA response (FU) for G4_18 (antibody, human IgG1, V domains shown, also called 1254_P01_H04; clone G4_18) VH: EVQLVESGAEVKKPGASVKVSCKASGYTFTGYYMHWVRQAPGQGLEWMGRINPNSGGTNYAQKFQGRVTMTRDASISTAYMELSRLRSDDTAVYYCARDLDLSSLDYWGRGTLVTVSS VL: SSYELTQPPSVTESPGQTARITCSGDALAKQYAYWYQQKPGQAPVLVIYRDSERPSEIPERFSGSSSGTTVTLTISGVQAEDEADYYCQSADSSGTYTVFGGGTKLTVLG .
Response: 185

Where do these numbers come from? They come from patent US20230090901A1.
